TARGET ENTITY: T1, human collagen II (human, UniProt P02458 182-1241)
T1 construct: Purified human collagen II (Chondrex #2015), isolated from cartilage; also called huColII; human type II collagen
T1 sequence (P02458 182-1241 limits assumed): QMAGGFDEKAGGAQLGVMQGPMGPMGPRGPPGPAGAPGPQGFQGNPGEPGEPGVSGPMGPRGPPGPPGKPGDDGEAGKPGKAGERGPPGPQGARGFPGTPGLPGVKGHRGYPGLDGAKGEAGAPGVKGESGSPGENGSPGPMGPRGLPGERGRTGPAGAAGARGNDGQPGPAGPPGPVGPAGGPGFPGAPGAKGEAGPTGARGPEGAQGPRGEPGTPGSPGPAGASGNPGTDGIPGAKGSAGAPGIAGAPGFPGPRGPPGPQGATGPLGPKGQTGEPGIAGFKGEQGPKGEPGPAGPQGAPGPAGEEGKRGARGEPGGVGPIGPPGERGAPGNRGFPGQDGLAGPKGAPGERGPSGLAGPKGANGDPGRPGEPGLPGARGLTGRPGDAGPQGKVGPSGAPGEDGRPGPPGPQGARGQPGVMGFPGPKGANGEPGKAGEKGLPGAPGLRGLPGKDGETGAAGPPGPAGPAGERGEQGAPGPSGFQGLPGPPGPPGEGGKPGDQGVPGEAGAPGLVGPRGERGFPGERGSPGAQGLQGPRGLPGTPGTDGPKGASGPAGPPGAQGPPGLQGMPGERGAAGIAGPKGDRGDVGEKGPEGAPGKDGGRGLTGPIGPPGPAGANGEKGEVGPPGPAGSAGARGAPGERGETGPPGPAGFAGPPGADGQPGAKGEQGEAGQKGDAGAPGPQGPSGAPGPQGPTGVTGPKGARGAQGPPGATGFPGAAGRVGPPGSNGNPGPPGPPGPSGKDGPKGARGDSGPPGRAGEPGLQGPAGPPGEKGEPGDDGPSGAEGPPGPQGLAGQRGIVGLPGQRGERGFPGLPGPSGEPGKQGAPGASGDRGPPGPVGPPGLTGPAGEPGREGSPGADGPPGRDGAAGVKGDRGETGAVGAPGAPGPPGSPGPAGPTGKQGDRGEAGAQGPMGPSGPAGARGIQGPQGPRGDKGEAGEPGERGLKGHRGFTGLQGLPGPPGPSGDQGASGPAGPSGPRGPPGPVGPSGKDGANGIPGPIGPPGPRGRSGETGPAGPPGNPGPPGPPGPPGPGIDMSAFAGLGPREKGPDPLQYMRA
MEASUREMENT NOTES: ELISA, plate coated with 10 µg/ml human collagen II, 100 µL Fab lysate, anti-kappa-HRP, chemiluminescence
RESULT TYPE: binding result

BINDER: Fab 169-76 (Fab, V domains shown, Human Fab from a pIX phage library, made in E. coli; kappa light chain (detected with anti-kappa-HRP); also called VH169-76/VL169-76) VH: QVQLVQSGAEVKKPGSSVKVSCKASGGTFSSYGISWVRQAPGQGLEWMGGIIPYFGTANYAQKFQGRVTITADESTSTAYMELSSLRSEDTAVYYCARPTNVLDYWGQGTLVTVSS VL: EIVLTQSPATLSLSPGERATLSCRASQSVRKFLAWYQQKPGQAPRLLIYDASNRATGIPARFSGSGSGTDFTLTISSLEPEDFAVYYCQQSNNWPFTFGQGTKVEIK
ENDPOINT RESULT: binds
//
BINDER: Fab169-G11 (Fab, V domains shown, Human Fab from a pIX phage library, made in E. coli; kappa light chain (germline L6 scaffold); also called VH169-G11/VLL6) VH: QVQLVQSGAEVKKPGSSVKVSCKASGGTFSSYAISWVRQAPGQGLEWMGGIIPIFGTANYAQKFQGRVTITADESTSTAYMELSSLRSEDTAVYYCARDGYDIVLGIFDYWGQGTLVTVSS VL: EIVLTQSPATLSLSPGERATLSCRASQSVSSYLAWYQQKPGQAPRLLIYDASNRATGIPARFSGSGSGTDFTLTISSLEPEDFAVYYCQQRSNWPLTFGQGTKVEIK
ENDPOINT RESULT: binds
//
BINDER: Fab169-64 (Fab, V domains shown, Human Fab from a pIX phage library, made in E. coli; kappa light chain; also called VH169-64/VL169-64) VH: QVQLVQSGAEVKKPGSSVKVSCKASGGTFSSYAISWVRQAPGQGLEWMGGIIPIFGTANYAQKFQGRVTITADESTSTAYMELSSLRSEDTAVYYCARNIVGDYLLDYWGQGTLVTVSS VL: EIVLTQSPATLSLSPGERATLSCRASQSVDDWLAWYQQKPGQAPRLLIYDASNRATGIPARFSGSGSGTDFTLTISSLEPEDFAVYYCQQGDTAPITFGQGTKVEIK
ENDPOINT RESULT: binds
